System: MCF7
experiment notes: Cytotoxicity against human MCF7 cells after 24 hrs by MTT assay
Type: functional, cell-based
condition notes: MCF7, 24 h
measurement type: pIC50
The read-out pIC50 is expressed as -log10 of concentration in moles per litre.

# annotated cases, reported pIC50 shown
Cn1nc(-c2nnc(SCCc3ccc(F)cc3)o2)cc1-c1ccc(C(F)(F)F)cc1 :: 4.60
Cn1nc(-c2ccc(C(F)(F)F)cc2)cc1-c1nnc(SCCOc2ccccc2F)o1 :: 4.48
Cn1nc(-c2nnc(SCc3ccc(Cl)cc3F)o2)cc1-c1ccc(C(F)(F)F)cc1 :: 4.74

May I ask what pIC50 has been recorded for Cn1nc(-c2nnc(SCc3c(F)cccc3F)o2)cc1-c1ccc(C(F)(F)F)cc1 ?
4.58

Consider the molecule shown here: Cn1nc(-c2nnc(SCCOc3ccccc3F)o2)cc1-c1ccc(C(F)(F)F)cc1 What is its recorded pIC50?
4.64

State the recorded pIC50 for this entry: Cn1nc(-c2ccc(C(F)(F)F)cc2)cc1-c1nnc(SCc2cccc(Cl)c2Cl)o1
4.22
